Assay system Interleukin-6 (Human); read-out recorded as IC50.
One number for each entry, in µM.

# structure_smiles_string, IC50 [µM]
records = [
    ("CCc1ccc(Nc2nc3cc(NC(=O)c4ccccc4)ccc3o2)cc1", 5.8),
    ("CCc1ccc(Nc2nc3cc(N)ccc3o2)cc1", 18.9),
]

Okay, now this molecule:
Entry "C=C1C(C)=C(CCCC)C(=O)[C@]1(C)CN1c2ccccc2[C@]2(O)CCO[C@H]12" : reported IC50 = ?
20.7
